Sourced from patent US6511978B1

# System under test: Ras farnesyl transferase (Rattus norvegicus, UniProt Q02293+Q04631)
# Construct: endogenous in cells; host or cells: Rat2 fibroblasts transformed with C-Harvey-Ras or with the H-Ras/K-Ras polybasic-domain fusion
# Assay overview: In vivo (intracellular) Ras farnesylation inhibition in Rat2 cell line transformed with H-Ras fused with polybasic lysine domain of K-Ras
# Type: cell-based
# Condition label: Rat2 cells transformed with H-Ras/K-Ras polybasic domain fused protein; concentration inhibiting 50% of farnesyl binding; read-out: K-Ras CIC50
pIC50: −log10 of the molar value.
Field: pIC50. Provide a value for each of the molecules that follow.

q: Report pIC50 for CN1CCN(C(=O)c2cn(Cc3c(I)ncn3Cc3ccc4c(c3)OCO4)cc2-c2cccc3ccccc23)CC1 [Example 20]
a: < 5.00

q: Report pIC50 for Cc1ncc(Cn2cc(C(=O)N3CCN(C)CC3)c(-c3cccc4ccccc34)c2)n1Cc1ccc2c(c1)OCO2 [Example 15]
a: < 5.00

q: Report pIC50 for CN1CCN(C(=O)c2cn(Cc3c([N+](=O)[O-])ncn3Cc3ccc4c(c3)OCO4)cc2-c2cccc3ccccc23)CC1 [Example 21]
a: < 5.00

q: Report pIC50 for O=[N+]([O-])c1cn(Cc2cncn2CCc2ccccc2)cc1-c1cccc2ccccc12 [Example 39]
a: < 5.00

q: Report pIC50 for COCCN(C)C(=O)c1cn(Cc2cncn2CCCN2CCOCC2)cc1-c1cccc2ccccc12 [Example 9]
a: 4.30 to 5.00

q: Report pIC50 for Cc1ncn(Cc2ccc3c(c2)OCO3)c1Cn1cc(C(=O)N2CCN(C)CC2)c(-c2cccc3ccccc23)c1 [Example 16]
a: < 5.00

q: Report pIC50 for O=[N+]([O-])c1cn(Cc2cncn2CCc2cccc3ccccc23)cc1-c1cccc2ccccc12 [Example 46]
a: < 5.00

q: Report pIC50 for Cc1ncc(Cn2cc(C(=O)N3CCN(C)CC3)c(-c3cccc4ccccc34)c2)n1CCCOCc1ccccc1 [Example 33]
a: < 5.00

q: Report pIC50 for Cn1cncc1Cn1cc(-c2cccc3ccccc23)c([N+](=O)[O-])c1 [Example 48]
a: < 5.00

q: Report pIC50 for Cc1ncn(Cc2ccc3c(c2)OCO3)c1Cn1cc(C(=O)N2CCN(C)CC2)c(-c2cc(Br)cc3ccccc23)c1 [Example 51]
a: < 5.00

q: Report pIC50 for CN1CCN(C(=O)c2cn(Cc3cncn3CCc3cccs3)cc2-c2cccc3ccccc23)CC1 [Example 11]
a: 4.30 to 5.00

q: Report pIC50 for O=C(c1cn(Cc2cncn2CCCOc2ccccc2)cc1-c1cccc2ccccc12)N1CCOCC1 [Example 6]
a: 4.30 to 5.00

q: Report pIC50 for COCCN(C)C(=O)c1cn(Cc2cncn2CCc2cccs2)cc1-c1cccc2ccccc12 [Example 10]
a: 4.30 to 5.00

q: Report pIC50 for Cc1ccc(CCn2cncc2Cn2cc(-c3cccc4ccccc34)c([N+](=O)[O-])c2)cc1 [Example 40]
a: < 5.00

q: Report pIC50 for COCCN(C)C(=O)c1cn(Cc2cncn2CCCSc2ccccc2)cc1-c1cccc2ccccc12 [Example 5]
a: 4.30 to 5.00

q: Report pIC50 for O=C(c1cn(Cc2cncn2CCCOCc2ccccc2)cc1-c1cccc2ccccc12)N1CCOCC1 [Example 2]
a: 4.30 to 5.00

q: Report pIC50 for O=[N+]([O-])c1cn(Cc2cncn2CCc2cccc(Br)c2)cc1-c1cccc2ccccc12 [Example 43]
a: < 5.00

q: Report pIC50 for Cc1ncn(CCCOCc2ccccc2)c1Cn1cc(C(=O)N2CCN(C)CC2)c(-c2cccc3ccccc23)c1 [Example 29]
a: > 5.00

q: Report pIC50 for CCOCCCn1cnc(C)c1Cn1cc(C(=O)N2CCN(C)CC2)c(-c2cccc3ccccc23)c1 [Example 28]
a: > 5.00

q: Report pIC50 for CN1CCN(C(=O)c2cn(Cc3cncn3CCCOCc3ccccc3)cc2-c2cccc3ccccc23)CC1 [Example 3]
a: 4.30 to 5.00

q: Report pIC50 for Cc1ncc(Cn2cc(C(=O)N3CCN(C)CC3)c(-c3cccc4ccccc34)c2)n1CCc1ccccc1 [Example 35]
a: < 5.00

q: Report pIC50 for O=[N+]([O-])c1cn(Cc2cncn2Cc2ccc3c(c2)OCO3)cc1-c1cccc2ccccc12 [Example 36]
a: < 4.70

q: Report pIC50 for CN1CCN(C(=O)c2cn(Cc3cncn3Cc3ccco3)cc2-c2cccc3ccccc23)CC1 [Example 12]
a: 4.30 to 5.00

q: Report pIC50 for O=[N+]([O-])c1cn(Cc2cncn2CCc2ccc(Cl)cc2)cc1-c1cccc2ccccc12 [Example 41]
a: < 5.00

q: Report pIC50 for Cc1ncn(CCCOCc2ccccc2Cl)c1Cn1cc(C(=O)N2CCN(C)CC2)c(-c2cccc3ccccc23)c1 [Example 31]
a: > 5.00

q: Report pIC50 for O=C(c1cn(Cc2cncn2C2CCN(Cc3ccccc3)CC2)cc1-c1cccc2ccccc12)N1CCOCC1 [Example 14]
a: 4.30 to 5.00

q: Report pIC50 for COCCN(C)C(=O)c1cn(Cc2c(C)ncn2CCCOCc2ccccc2Cl)cc1-c1cccc2ccccc12 [Example 32]
a: < 5.00

q: Report pIC50 for COCCN(C)C(=O)c1cn(Cc2cncn2CCCOCc2ccccc2)cc1-c1cccc2ccccc12 [Example 1]
a: 4.30 to 5.00

q: Report pIC50 for CN1CCN(C(=O)c2cn(Cc3cncn3CCCOc3ccccc3)cc2-c2cccc3ccccc23)CC1 [Example 7]
a: 4.30 to 5.00

q: Report pIC50 for Cc1c(C(=O)N2CCN(C)CC2)c(-c2cccc3ccccc23)cn1Cc1cncn1Cc1ccc2c(c1)OCO2 [Example 24]
a: > 5.00

q: Report pIC50 for COc1cccc(CCn2cncc2Cn2cc(-c3cccc4ccccc34)c([N+](=O)[O-])c2)c1 [Example 45]
a: < 5.00
